We begin with a simple list: items and their reported nuclei count.
experiment: reduction of polyQ htt aggregates in cells – imaging, exon1htt(103Q)mCFP cells, high-content imaging, primary screen (AID 483); details: exon1htt(103Q)mCFP cell line, aggregate imaging, at 2 µM; measured here: cell count, toxicity;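 note: compound exposure lasted 3 days before fixation; percent of the per-plate median nuclei count of sample wells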

molecule	nuclei count [%]
O=C(CN1C(=O)COc2ccccc21)NCCCN1CCc2ccccc2C1	106
NS(=O)(=O)c1ccc(NCc2c(F)cccc2Cl)cc1	79.8
O=c1n(CCCN2CCN(c3cccc(Cl)c3)CC2)nc2ccccn12	90
N#Cc1cnc(SCC(=O)Nc2ccccc2C(F)(F)F)nc1N	102
CCOc1ccccc1N1C(=O)CC(Sc2ncccc2C(=O)O)C1=O (centres undefined)	105
CCOC(=O)C1CCCN(C(=O)c2ccc(CS(=O)(=O)Cc3ccccc3C)o2)C1 (centres undefined)	76.5
Cc1ccsc1C1C2=C(CCCC2=O)Nc2ncnn21 (centres undefined)	86.7
C/C(Cl)=C\Cn1c(NCCc2ccccc2)nc2c1c(=O)n(C)c(=O)n2C	84.6
Cc1cc(S(=O)(=O)NC2CCCCC2)ccc1OCC(=O)NCc1ccccn1	96.4
COc1cccc(-c2cc3nc4c(c(N5CCC6(CC5)OCCO6)n3n2)CCCC4)c1	98.9
COc1cccc(-n2c(C)nc3c(cnn3-c3ccc(Cl)cc3)c2=O)c1	94.3
CCC(C)NC(=O)C1CCCN(S(=O)(=O)c2ccc(-n3cnnn3)cc2)C1 (centres undefined)	104
Cc1ccc(NC2=NC(c3ccccc3)n3c(nc(C)cc3=O)N2)cc1 (centres undefined)	89.6
CC(=O)OCC1=C(C(=O)O)N2C(=O)[C@@H](NC(=O)Cc3cccs3)[C@H]2SC1	85.4
Cc1ccccc1S(=O)(=O)Cc1ccc(C(=O)NCc2cccnc2)o1	105
O=C(NCc1ccccn1)c1ccc2nc(-c3ccco3)c(-c3ccco3)nc2c1	82.3
CC(=O)[C@@]1(O)CC[C@H]2[C@@H]3C[C@H](C)C4=CC(=O)C=C[C@]4(C)[C@@]3(F)[C@@H](O)C[C@@]21C	60.1
CCn1c2ccccc2c2cc(NC(=O)CSc3nnc(C4CC4)n3Cc3ccco3)ccc21	94.6
CN(C)CCSc1nnc2sc3ccccc3n12	105
CCn1ncc(C2=NOC(C(=O)N3CCC(C(N)=O)CC3)C2)c1C (centres undefined)	105
Cc1cccc(CS(=O)(=O)Cc2ccc(C(=O)NCC3CCCO3)o2)c1 (centres undefined)	99.3
COC(=O)c1ccccc1S(=O)(=O)N(CCCN1CCOCC1)Cc1cccs1	104
CCOC(=O)c1ccc(Oc2nc(NC)nc(OC)n2)cc1	98.2
Cc1oc(-c2ccccc2)cc1C(N)=O	66.5
Cc1cccc(C)c1OCC(=O)Nc1cccc(NC(=O)c2ccco2)c1	87.7
CCn1c(CSc2ncccn2)nnc1SCC(=O)N1c2ccccc2CC1C (centres undefined)	103
CC(C)c1ccc(NC(=O)C2CC(=O)N(C(C)C)C2)cc1 (centres undefined)	81.7
CCOC(=O)c1c(NC(=O)CSc2nnc(-c3ccc(OC)cc3)o2)sc2c1CCC2	113
CC(=O)N(c1ccc(N(C(C)=O)S(=O)(=O)c2cccs2)cc1)S(=O)(=O)c1cccs1	99.2
COc1ccc(N2CCN(C(=O)CSc3nnc(Cn4nnc5ccccc54)n3C)CC2)cc1	103
CCOC(=O)c1[nH]c2ccccc2c1NC(=O)c1ccco1	87.8
COc1cc2c(cc1OC)CN(C(=O)COc1ccc(C#N)cc1)CC2	91.8
Cc1ccccc1CNS(=O)(=O)c1ccc2c(c1)OCCO2	108
C=C(C)CSc1nnc2[nH]c(=O)cc(N)n12	54.8
CCn1c(COc2cccc3ccccc23)nnc1SCC(N)=O	99.6
Cc1ccc2c(c1)-c1cc(C)nn1C(c1ccc3c(c1)OCO3)N2 (centres undefined)	99.1
Cc1ccccc1-c1nc(CN2CCC(C(=O)NCCCN3CCOCC3)CC2)c(C)o1	89.8
Cc1ccc(C)c(S(=O)(=O)NCc2ccc(C(=O)N3CCN(C)CC3)cc2)c1	105
CCS(=O)(=O)N1CCC(C(=O)NC2CCCCC2)CC1	110
Cc1cc2c(c(=O)n1CCN(C)C)C(c1ccncc1)C(C#N)=C(N)O2 (centres undefined)	102
CCNc1nc(NC(C)C)nc(N(C#N)CCOc2ccc(Cl)cc2Cl)n1	98.5
O=C1NC(=O)C2(CCC(C(=O)O)C2)N1 (centres undefined)	100
CCn1c(=N)n(CC(O)COc2cccc(C)c2)c2ccccc21 (centres undefined)	94.9
COc1ccc(OC(C)C(=O)N2CCN(c3ccccn3)CC2)cc1 (centres undefined)	103

###

assay: endothelial E-selectin expression blockers – imaging, HUVEC, immunofluorescence, MLSMR starter and 10KST1 sets, primary screen (AID 487); conditions: HUVEC TNFalpha-induced E-selectin immunofluorescence imaging, at 2 µM; measured here: cell number, toxicity;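 note: 100% = median nuclei count of all wells on the same plate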
measurement kind: nuclei count (%)

compound	units	numeric value
O=c1cc(COn2nnc3ccc(C(F)(F)F)cc32)nc2sccn12	%	141
Cc1nn(-c2ccc(F)cc2)c2nc(N)c(C#N)c(-c3cccs3)c12	%	160
N#CCSc1nc2c(c(C3CC=CCC3)c1C#N)CCC2 (centres undefined)	%	112
O=C1CS/C(=N\C(=O)N2c3ccccc3Sc3ccccc32)N1	%	128
COc1ccccc1-c1cn[nH]c(=S)n1	%	101
CCn1nc(C(=O)OCC(=O)c2cc(C)n(Cc3cccs3)c2C)c2ccccc2c1=O	%	113
O=C(NCCO)c1scc2c1OCCO2	%	104
Cc1nnc(SCC(=O)Nc2ccc3c(c2)OCCO3)n1CC1CCCO1 (centres undefined)	%	114
CCN1CCN(C(=O)c2ccc3c(=O)n(CCC4=CCCCC4)c(=O)[nH]c3c2)CC1	%	114
Cn1c(=O)c2c(ncn2CC(O)CNc2ccc(Cl)cc2)n(C)c1=O (centres undefined)	%	110
CCCc1ccc(C(C)NC(=O)c2cnccn2)cc1 (centres undefined)	%	106
COc1cccc(-c2cc(C(=O)N3CCCc4ccccc43)no2)c1	%	94.5
Cc1ccc2nc(SCC(=O)NCc3ccco3)c(C#N)cc2c1	%	99.6
Cc1noc(C)c1S(=O)(=O)Nc1c(C)n(C)n(-c2ccccc2)c1=O	%	96
CN1C(=O)C2(NCCc3c2[nH]c2ccccc32)c2ccccc21 (centres undefined)	%	90.7
COc1ccc(-c2nc(N3CCCC3)[nH]c(=O)c2C#N)cc1	%	114
COc1cccc(CNc2cccc3cccnc23)c1O	%	122
Cc1ccc(-n2c(=O)[nH]c3c(C(N)=O)nc(CC(C)C)nc32)cc1	%	98.1
CC(C)c1nc2sc3c(c2c(=O)o1)CCCC3	%	143
CCCN1C(=O)SC(CC(=O)Nc2ccc(Br)cc2)C1=O (centres undefined)	%	104
CS(=O)(=O)N(CC(=O)N1CCN(c2cccc(Cl)c2)CC1)C1CCCCC1	%	78.2
NS(=O)(=O)c1cc2c(cc1C(F)(F)F)NCNS2(=O)=O	%	114
CSc1nnc2c3ccccc3n(CCc3ccccc3)c2n1	%	104
Cc1cc(OC(=O)N2CCOCC2)cc(C)c1Cl	%	130

###

biological target: Voltage-gated potassium channel subunit beta-2 (Rattus norvegicus) (UniProt P62483); experiment: enhancers of rat Kvbeta2 NADPH turnover – biochemical, NADPH fluorescence, primary screen (AID 623); settings: Recombinant KvBeta, NADPH fluorescence decrease slope, 10 min; at 10 µM; stronger effect = lower value;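 note: fluorescence intensity change per second fitted from 20 to 320 s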
Sequence (P62483 whole entry, looked up): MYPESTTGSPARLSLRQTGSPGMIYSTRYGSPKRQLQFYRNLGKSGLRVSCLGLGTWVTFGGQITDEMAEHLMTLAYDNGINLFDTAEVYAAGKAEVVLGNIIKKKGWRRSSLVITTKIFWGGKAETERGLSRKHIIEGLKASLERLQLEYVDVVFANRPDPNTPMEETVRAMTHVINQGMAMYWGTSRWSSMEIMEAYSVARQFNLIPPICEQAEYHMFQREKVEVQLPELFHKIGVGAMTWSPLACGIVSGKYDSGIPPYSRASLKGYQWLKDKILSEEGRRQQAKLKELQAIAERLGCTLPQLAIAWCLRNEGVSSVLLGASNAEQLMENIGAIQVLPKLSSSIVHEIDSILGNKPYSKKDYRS
We begin with a simple list: items and their reported NADPH fluorescence slope.

compound	NADPH fluorescence slope
Cc1cc(C)nc(NS(=O)(=O)c2ccc(N)cc2)n1	-5.4e-05
Brc1ccc(C2=Nn3c(nnc3-c3ccncc3)SC2)cc1	3.4e-05
Cc1ccccc1Cn1nc(C)c(NC(=O)c2noc3c2CCCC3)c1C	-2.7e-05
O=C1c2ccccc2C(=O)N1OCc1ccccc1	-3.7e-05
CC(C)CCn1c(SCC#N)nc2c(sc3ccccc32)c1=O	-2.4e-05
O=c1n(CCCN2CCN(c3cccc(Cl)c3)CC2)nc2ccccn12	-2.9e-05
CCCC(C)C(=O)Nc1ccc(C(N)=O)cc1 (configuration not stated)	-3.2e-05
CCCn1cc(SCC(=O)NCc2ccco2)c2ccccc21	9.7e-06
CCS(=O)(=O)N1CCC(C(=O)NC2CCCCC2)CC1	-0.000241
CCCCC(=NCCO)C1=C(O)C(C(=O)OC)C(C)(C)CC1=O (configuration not stated)	5e-05
Cc1cc(NC(=O)CSc2ccc3nnc(-c4cccc(F)c4)n3n2)no1	1e-08
COc1ccc(N2CCN(C(c3cccc(OC)c3OC)c3nnnn3C3CCCC3)CC2)cc1 (configuration not stated)	9.8e-05

###

assay: blockers of RIG-like receptor reporter activation – cell-based, Sendai virus stimulus, luciferase, 10K MLSCN set, TLR/RLR signaling modifier project, primary screen (AID 602276); conditions: HEK293 RL24 IRF3 luciferase reporter, at 10 µM, stronger effect = higher value;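 note: firefly luciferase from ISG56 promoter only with Renilla not read in this screen; 0% = Sendai virus plus DMSO and 100% = medium plus DMSO without virus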
measurement kind: inhibition (%)

compound	numeric value
COc1ccc(N(CC(=O)NC2CCCC2)C(=O)Cn2nnc(-c3ccc(C)cc3)n2)cc1	-14.1
O=C(CN1CCN(C(=O)c2ccccc2)CC1)Nc1ncc(Br)cc1Br	-7.57
Cc1[nH]c(=O)[nH]c(=O)c1S(=O)(=O)N1CCN(c2cccc(Cl)c2)CC1	-13.2
CCOC(=O)N1CCN(C(=O)c2ccc(N3C(=O)CCC3=O)cc2)CC1	-5.15
O=C(Nc1cccc(F)c1)N1CC=C(n2c(=O)[nH]c3ccccc32)CC1	15
Cc1ccc(Cn2nnc3c(=O)[nH]c(C4CCN(C(=O)c5cccs5)CC4)nc32)cc1	5.84
COc1cc2c(cc1OC)CN(C(=O)COc1ccc(C#N)cc1)CC2	6.14
Cc1cc(NC(=O)COc2ncnc3sc(C)c(C)c23)no1	21
COCCCn1c(SCC(=O)N2CCc3ccccc32)nnc1-c1ccoc1C	20.2
COc1ccccc1C(=O)Nc1ccc(N2CCN(S(C)(=O)=O)CC2)cc1	-8.58
CCOC(=O)COc1ccc(S(=O)(=O)N2CCc3ccccc3C2)cc1	19.6
COc1ccc(CCNC(=O)c2nc3ncccn3n2)cc1OC	18.2
CCOC(=O)c1sc2nc3c(cc2c1N)COC(C)(C)C3	-38.4
Cc1cc(C)cc(-n2ccnc2SCC(=O)Nc2ccc3c(c2)OCCO3)c1	1.38
CCOC(=O)C1CCN(C(=O)CSc2n[nH]c(=O)[nH]c2=O)CC1	12.2
O=c1[nH]c2c(s1)C(c1ccco1)C1C3CCC(C3)C1S2 (stereo not drawn)	12.1
COc1ccc(OC)c(C2=NOC(C(=O)Nc3cccnc3)C2)c1 (stereo not drawn)	4.03
Cc1ccc(C(C)C)c(OCCCN2CC(C)OC(C)C2)c1 (stereo not drawn)	8.84
C=C(c1ccc(O)cc1)c1ccc(O)cc1	13.9
O=C1CCc2cc(OCCCCc3nnnn3C3CCCCC3)ccc2N1	-3.33
CN1CCCc2cc(C#N)c(=O)[nH]c21	11.5
Cn1c(=O)cc(SCC(=O)N2CCOCC2)c2ccc(Cl)cc21	15
O=C(COC(=O)c1ccco1)NCc1cccs1	5.62
